These entries and their values trace back to patent US11958861B2.

target.of.assay: catalytic domain (JH1, amino acids 808-1132) of human JAK2 (Homo sapiens)
Construct: catalytic domain (JH1, amino acids 808-1132) of human JAK2; His (N)
Sequence (O60674 808-1132): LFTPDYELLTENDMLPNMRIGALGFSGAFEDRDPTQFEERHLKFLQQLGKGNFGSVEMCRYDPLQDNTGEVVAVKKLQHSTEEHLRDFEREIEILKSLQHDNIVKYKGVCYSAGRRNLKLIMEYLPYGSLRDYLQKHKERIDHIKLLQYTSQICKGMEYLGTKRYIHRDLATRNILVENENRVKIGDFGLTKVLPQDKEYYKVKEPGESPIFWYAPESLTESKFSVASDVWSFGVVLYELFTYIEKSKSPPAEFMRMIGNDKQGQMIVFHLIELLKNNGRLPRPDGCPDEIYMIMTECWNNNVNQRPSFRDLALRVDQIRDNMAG
assay.procedure: JAK2 HTRF Enzyme Activity Assay
details: ATP 30 μM, read-out: ENZ 30UMATP
Where a name gives a salt, the structure may show the parent alone.
readout.type: IC50

{"compound": "CN1C(=O)C2(CCN(C3(CC#N)CCC3)CC2)c2c1cnc1[nH]c(-c3cnn(CCN4CCOCC4)c3)c(-c3ccc4c(cnn4C)c3)c21 [Example 38, trifluoroacetate salt]", "target.of.assay": "catalytic domain (JH1, amino acids 808-1132) of human JAK2 (Homo sapiens)", "IC50": "≤ 100 nM"}
{"compound": "CCS(=O)(=O)N1CC2(C1)CC1(C2)C(=O)N(C)c2cnc3[nH]c(-c4cnn(C)c4)c(-c4ccc5c(cnn5C)c4)c3c21 [Example 86, trifluoroacetate salt]", "target.of.assay": "catalytic domain (JH1, amino acids 808-1132) of human JAK2 (Homo sapiens)", "IC50": "500 to 1250 nM"}

Proceeding to the next compound to report its IC50.
Data request: GET /values?readout=IC50&item= COc1c(F)cc(-c2c(-c3cnn(CC(C)(C)O)c3)[nH]c3ncc4c(c23)C2(CCN(C3(CC#N)CCC3)CC2)C(=O)N4C)cc1F [Example 47, trifluoroacetate salt]
Data returned: > 2500 nM
